Data provenance: ChEMBL document CHEMBL3593221

test system: K562; assay: Antiproliferative activity against human K562 cells after 48 hrs by MTT assay; format: functional, cell-based; conditions: K562, 48 h
pIC50: −log10 of the molar value.
assay-metric: pIC50

{"columns": ["substance-smiles", "tested-target", "pIC50"],
 "data": [
  ["O=C(CN1C(=O)C2(OCCCO2)c2cc(Br)ccc21)Nc1ccc(C(=O)NO)cc1", "K562", 5.71],
  ["O=C(CCCN1C(=O)C2(OCCCO2)c2cc(Br)ccc21)Nc1ccc(C(=O)NO)cc1", "K562", 6.41],
  ["O=C(CCN1C(=O)C2(OCCCO2)c2cc(Br)ccc21)Nc1ccc(C(=O)NO)cc1", "K562", 6.74],
  ["O=C(CN1C(=O)C2(OCCCCO2)c2cc(Cl)ccc21)Nc1ccc(C(=O)NO)cc1", "K562", 5.14],
  ["O=C(CN1C(=O)C2(OCCCCO2)c2cc(Br)ccc21)Nc1ccc(C(=O)NO)cc1", "K562", 5.41]
]}

[P] O=C(CN1C(=O)C2(OCCCO2)c2cc(Cl)ccc21)Nc1ccc(C(=O)NO)cc1
[Q] Nc1ccccc1NC(=O)c1ccc(NC(=O)CN2C(=O)C3(OCCCO3)c3cc(Br)ccc32)cc1
From the recorded data, which exceeds the other in pIC50: P or Q ? Refer to your chosen item by its label in the answer.
Q
(Q: 6.36, P: 5.27)
